Measurement notes: Half life in BALB/c mouse infected with Staphylococcus aureus at 6.25 mg/kg, sc administered as single dose
Type: ADME, organism-based
Set-up: dose 6.25 mg/kg, route subcutaneous
Condition details: in vivo
Measured parameter: half-life (h)
Just the number in h, nothing appended.

Documented half-life of CN(C)c1cc(NC(=O)CNC(C)(C)C)c(O)c2c1C[C@H]1C[C@H]3[C@H](N(C)C)C(O)=C(C(N)=O)C(=O)[C@@]3(O)C(O)=C1C2=O : 12.4

###

Measurement notes: AUC (0 to 8 hrs) in Staphylococcus aureus-infected BALB/c mouse epithelial lining fluid at 25 mg/kg, sc administered as single dose
Type: ADME, organism-based
Parameters: time < 8 hr, dose 25 mg/kg, route subcutaneous
Measured parameter: AUC(0-t) at 8 h (ng·h/mL)
Just the number in ng·h/mL, nothing appended.

Documented AUC(0-t) at 8 h of CN(C)c1cc(NC(=O)CNC(C)(C)C)c(O)c2c1C[C@H]1C[C@H]3[C@H](N(C)C)C(O)=C(C(N)=O)C(=O)[C@@]3(O)C(O)=C1C2=O : 20400

###

Measurement notes: AUC (0 to 8 hrs) in Staphylococcus aureus-infected BALB/c mouse epithelial lining fluid at 12.5 mg/kg, sc administered as single dose
Assay type: ADME, organism-based
Set-up: time < 8 hr, dose 12.5 mg/kg, route subcutaneous
Measured parameter: AUC(0-t) at 8 h
The answer should read as a number with its unit following.

Documented AUC(0-t) at 8 h of CN(C)c1cc(NC(=O)CNC(C)(C)C)c(O)c2c1C[C@H]1C[C@H]3[C@H](N(C)C)C(O)=C(C(N)=O)C(=O)[C@@]3(O)C(O)=C1C2=O : 11000 ng·h/mL

###

Measurement notes: Half life in BALB/c mouse infected with Staphylococcus aureus at 12.5 mg/kg, sc administered as single dose
Type: ADME, organism-based
Design: dose 12.5 mg/kg, route subcutaneous
Condition details: in vivo
Measured parameter: half-life (h)
Just the number in h, nothing appended.

Documented half-life of CN(C)c1cc(NC(=O)CNC(C)(C)C)c(O)c2c1C[C@H]1C[C@H]3[C@H](N(C)C)C(O)=C(C(N)=O)C(=O)[C@@]3(O)C(O)=C1C2=O : 7.13
